Target: α1-adrenoceptor (3H-prazosin binding sites)
Test: intact animal study: intraperitoneal injection, membranes prepared 16 hours later and assayed for saturation of 3H-prazosin binding
Type: in vivo, rat
Details: 10 mg/kg i.p., heart, control 0.150 ± 0.019, read-out: Kd, experimental, heart
Experimental endpoint: Kd

INSERT INTO results (compound, experimental_endpoint, result) VALUES
  ('COc1cc2nc(N3CCN(C(=O)C4=CC5C=CC4CC5)CC3)nc(N)c2cc1OC (stereo not shown) [Compound 47]', 'Kd', '255 pM');

====

Target: α1-adrenoceptor (3H-prazosin binding sites)
Test: displacement of 3H-prazosin from rat cerebral cortical (brain) membranes
Conditions: 3H-prazosin displacement, rat cerebral cortical membranes
Items are presented alongside their recorded -logIC50.
Experimental endpoint: -logIC50

INSERT INTO assay_data (compound, recorded_number) VALUES
  ('COc1cc2nc(N3CCN(C(=S)Nc4ccc(F)cc4)CC3)nc(N)c2cc1OC', 8.62),
  ('COc1cc2nc(N3CCN(C(=O)c4ccc5ccccc5c4)CC3)nc(N)c2cc1OC', 7.31),
  ('COc1cc2nc(N3CCN(C(=O)/C=C/C(=O)c4ccccc4)CC3)nc(N)c2cc1OC', 7.06),
  ('COc1cc2nc(N3CCN(C(=O)C(=Cc4ccccc4)N=[N+]=[N-])CC3)nc(N)c2cc1OC', 8.06),
  ('COc1cc2nc(N3CCN(C(=O)C=Cc4ccc(Cl)cc4)CC3)nc(N)c2cc1OC', 7.90),
  ('COc1cc2nc(N3CCN(C(=O)CCc4ccccc4)CC3)nc(N)c2cc1OC', 8.47),
  ('COc1cc2nc(N3CCN(C(=O)Nc4ccccc4)CC3)nc(N)c2cc1OC', 7.56),
  ('COc1cc2nc(N3CCN(C(=O)n4ccnc4)CC3)nc(N)c2cc1OC', 7.97),
  ('COc1cc2nc(N3CCN(C(=O)/C=C/c4ccc(F)cc4)CC3)nc(N)c2cc1OC', 7.92),
  ('COc1cc2nc(N3CCN(C(=O)c4cc(Cl)nc(Cl)n4)CC3)nc(N)c2cc1OC', 7.49),
  ('COc1cc2nc(N3CCN(C(=O)c4ccc(N=C=S)c(I)c4)CC3)nc(N)c2cc1OC', 7.29),
  ('COc1cc2nc(N3CCN(C(=O)C4CC5C=CC4C5)CC3)nc(N)c2cc1OC (stereo not drawn)', 8.61),
  ('COc1cc2nc(N3CCN(C(=O)C4=CC5CCC4CC5)CC3)nc(N)c2cc1OC', 8.4),
  ('COc1cc2nc(N3CCN(C(=S)Nc4ccc(NC(=S)N5CC5)cc4)CC3)nc(N)c2cc1OC', 7.01),
  ('COc1cc2nc(N3CCN(C(=O)C=Cc4ccc(N=C=S)cc4)CC3)nc(N)c2cc1OC', 6.99);
